- Tested on: 5HT (synaptosomal serotonin uptake)
- Test: inhibition of synaptosomal uptake of serotonin (14C-5-HT)
- Assay type: biochemical
- Assay context: synaptosomal 14C-5-HT uptake; read-out: Neuronal Uptake 5HT IC50
Readout name: pIC50
Keep in mind that pIC50 stands for -log10 of concentration in molar terms.

Prompt: // pIC50 lookup, key: COc1ccc(C(=CCCN2CCN(Cc3ccccc3)CC2)C2(O)CCCCC2)cc1
Response: 6.04

Prompt: Then this molecule: COc1cccc(C(=CCN2CCN(Cc3ccccc3)CC2)C2(O)CCCCC2)c1
Response: 5.77

Prompt: Then this molecule: COc1cccc(C(=CCN2CCN(c3ncccn3)CC2)C2(O)CCCCC2)c1
Response: 5.68

---

- Target entity: dopamine D2 receptor (Rattus norvegicus)
- Construct: D2 receptors found in homogenized limbic brain tissue; from tissue; host or cells: homogenized limbic brain tissue
- Test: inhibition of 3H-haloperidol binding at D2 receptors in homogenized limbic brain tissue
Readout name: pKi
Keep in mind that pKi stands for -log10 of concentration in molar terms.

Prompt: // pKi lookup, key: COc1cccc(C(=CCN2CCN(Cc3cccc(Cl)c3)CC2)C2(O)CCCCC2)c1
Response: 7.77

---

- System: NE (synaptosomal norepinephrine uptake)
- Test: inhibition of synaptosomal uptake of norepinephrine (3H-NE)
- Type: biochemical
- Assay context: synaptosomal 3H-NE uptake; read-out: Neuronal Uptake NE IC50
Readout name: IC50 (nM)
Form entry: value (nM) — number only.

Prompt: // IC50 lookup, key: COc1ccc(C(=CCCN2CCN(Cc3ccccc3)CC2)C2(O)CCCCC2)cc1 [Example 10]
Response: 190

Prompt: Then this compound: COc1cccc(C(=CCN2CCN(c3ncccn3)CC2)C2(O)CCCCC2)c1 [Example 7]
Response: 4820

Prompt: Then this compound: COc1cccc(C(=CCN2CCN(Cc3ccccc3)CC2)C2(O)CCCCC2)c1 [Example 1]
Response: 640

---

- Target entity: dopamine D2 receptor (Rattus norvegicus, UniProt P61169)
- Construct: D2 receptors found in homogenized limbic brain tissue; from tissue; host or cells: homogenized limbic brain tissue
- Sequence (P61169 whole entry): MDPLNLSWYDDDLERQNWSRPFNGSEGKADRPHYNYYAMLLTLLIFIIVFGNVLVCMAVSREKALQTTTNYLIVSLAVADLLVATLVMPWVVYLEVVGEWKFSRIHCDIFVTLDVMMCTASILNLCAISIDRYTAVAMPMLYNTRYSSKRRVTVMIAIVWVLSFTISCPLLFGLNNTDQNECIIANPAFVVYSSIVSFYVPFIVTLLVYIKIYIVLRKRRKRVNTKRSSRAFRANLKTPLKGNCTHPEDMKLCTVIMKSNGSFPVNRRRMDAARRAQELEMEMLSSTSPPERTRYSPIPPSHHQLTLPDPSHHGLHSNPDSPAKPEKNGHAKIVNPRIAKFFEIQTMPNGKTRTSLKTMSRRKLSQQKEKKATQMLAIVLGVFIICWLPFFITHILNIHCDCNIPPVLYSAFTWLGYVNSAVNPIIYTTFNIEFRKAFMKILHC
- Test: inhibition of 3H-haloperidol binding at D2 receptors in homogenized limbic brain tissue
- Assay context: at 1 μM
Consider the following molecules; for each one, report its inhibition at 1 µM.
Form entry: value (%) — number only.

Prompt: // inhibition at 1 µM lookup, key: COc1cccc(C(=CCN2CCN(Cc3ccccc3)CC2)C2(O)CCCCC2)c1
Response: 80

Prompt: Then this molecule: COc1cccc(C(=CCN2CCN(Cc3ccc(Cl)cc3)CC2)C2(O)CCCCC2)c1
Response: 76

Prompt: Then this molecule: COc1ccc(C(=CCCN2CCN(Cc3ccccc3)CC2)C2(O)CCCCC2)cc1
Response: 53

Prompt: Then this molecule: COc1cccc(C(=CCN2CCN(Cc3ccc(C(F)(F)F)cc3)CC2)C2(O)CCCCC2)c1
Response: 76

Prompt: Then this molecule: COc1cccc(C(=CCN2CCN(c3ncccn3)CC2)C2(O)CCCCC2)c1
Response: 61

Prompt: Then this molecule: COc1ccc(C(=CCN2CCN(Cc3ccccc3)CC2)C2(O)CCCCC2)cc1
Response: 66

---

The following compounds have recorded pKi on 5-HT1A receptor (Rattus norvegicus, UniProt P19327).
Sequence (P19327 whole entry): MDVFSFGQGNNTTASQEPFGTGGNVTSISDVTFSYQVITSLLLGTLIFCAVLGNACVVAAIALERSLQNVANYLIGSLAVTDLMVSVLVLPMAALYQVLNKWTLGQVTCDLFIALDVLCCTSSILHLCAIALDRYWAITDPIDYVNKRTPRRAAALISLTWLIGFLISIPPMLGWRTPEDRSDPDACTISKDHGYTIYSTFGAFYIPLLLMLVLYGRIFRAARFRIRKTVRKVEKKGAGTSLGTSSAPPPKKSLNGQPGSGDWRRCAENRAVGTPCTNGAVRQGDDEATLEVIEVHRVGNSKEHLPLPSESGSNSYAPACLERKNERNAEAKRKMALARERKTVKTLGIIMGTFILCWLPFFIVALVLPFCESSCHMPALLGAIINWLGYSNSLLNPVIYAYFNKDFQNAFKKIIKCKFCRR
Keep in mind that pKi stands for -log10 of concentration in molar terms.

Prompt: Enter reported pKi observed with 5-HT1A receptor (Rattus norvegicus, UniProt P19327) for COc1cccc(C(=CCN2CCN(Cc3ccccc3)CC2)C2(O)CCCCC2)c1 [Example 1]
Response: 8.52

Prompt: Then this compound: COc1cccc(C(=CCN2CCN(Cc3cccc(Cl)c3)CC2)C2(O)CCCCC2)c1 [Example 4]
Response: 9.15

Prompt: Then this compound: COc1cccc(C(=CCN2CCN(c3ncccn3)CC2)C2(O)CCCCC2)c1 [Example 7]
Response: 7.31
